- testedTarget: Cp149 (truncated form of a HBV core protein) (Hepatitis B virus genotype D subtype ayw)
- Construct: Cp149 (amino acids 1-149) is a truncated form of a HBV core protein; histidine tag (cleaved yes); made in house; host or cells: Escherichia coli BL21(DE3)
- Sequence (P03146 1-149): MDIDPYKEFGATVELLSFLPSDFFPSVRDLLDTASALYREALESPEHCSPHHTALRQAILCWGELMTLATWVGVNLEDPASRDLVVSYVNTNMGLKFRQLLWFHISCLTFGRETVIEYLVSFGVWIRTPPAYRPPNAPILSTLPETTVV
- experimentalProtocol: Protein based assay: immunoblot analysis of in vitro HBV capsid assembly
- Type: biochemical
- conditions: read-out: Protein based assay (% inhibition), 1 μM
- Protocol: Cp149 (amino acids 1-149) is a truncated form of a HBV core protein. It was expressed in Escherichia coli, and the expressed protein was purified. The recombinant Cp149 was expressed in E. coli BL21(DE3) cells cultured in LB medium at 37° C. When the culture reached an OD600 of 0.7 to 0.8, expression of the culture was induced with 0.5 mM isopropyl-β-d-thiogalactopyranoside and the culture was cooled to 16° C. […]
Returns one of true (1) or false (0); true (1) when inhibition at 1 µM is >= 90%.

Prompt line: Is inhibition at 1 µM at least 90%? Consider COc1ncccc1C(=O)NCCNc1cc(Nc2ccc(F)cc2)nc([S+](C)[O-])n1 (stereo not drawn) [Compound 9b]
Response line: false (0)

Prompt line: Can COc1ncccc1C(=O)NCCNc1cc(Nc2ccc(N3CCOCC3)cc2)nc([S+](C)[O-])n1 (stereo not drawn) [Compound 5a] be said to have inhibition at 1 µM at or above 90%?
Response line: false (0)

Prompt line: Tell me whether inhibition at 1 µM is at least 90% here: CS(=O)(=O)c1nc(Nc2ccc(F)c(Br)c2)cc(NC2CCNCC2)n1 [Compound 26g]
Response line: true (1)

Prompt line: Threshold query (inhibition at 1 µM >= 90%) on CS(=O)(=O)c1nc(Nc2ccc(F)c(Cl)c2)cc(N2CCC(N)CC2)n1 [Compound 26i]
Response line: true (1)

Prompt line: Textbook exercise: given the entry COc1ncccc1C(=O)NCCNc1cc(Nc2ccccc2)nc([S+](C)[O-])n1 (stereo not drawn) [Compound 9a] , state whether its inhibition at 1 µM is greater than or equal to 90%.
Response line: false (0)

Prompt line: Is inhibition at 1 µM at least 90%? Consider CS(=O)(=O)c1nc(Nc2ccc(F)c(Cl)c2)cc(NC2CCNCC2)n1 [Compound 26f]
Response line: true (1)
